Every entry's value here was drawn from PubChem BioAssay (NCI).

System: UO-31 renal
Test: NCI-60 one-dose screen, 48 h
Settings: 10 µM unless noted
This is part of a sample that, as a whole, favours compounds with a hit. Of some 83,000 tested, about 20% had one in any assay. Calls of active or inactive are those of the source. The calls were made as follows: active = growth percent below 10; inactive = the rest.
Possible outcomes: active, inactive

>>> group_label("Cn1c(=O)c(S(=O)(=O)c2ccccc2)cc2ccc3c(cnn3-c3ccc(Cl)cc3)c21")
"inactive"
>>> group_label("Cc1ccc2c(N/N=C\\c3ccco3)cc(C)nc2n1")
"inactive"
>>> group_label("CCCCCCCC/C=C\\CCCCCCCCOc1cccc(CC(=O)NCC[N+]2(C)CCOCC2)c1")
"inactive"
>>> group_label("O=C(CC(O)c1ccccc1)Nc1ccccn1 (configuration not stated)")
"inactive"
>>> group_label("Nc1nc(-c2ccnc(Cl)c2)nn1-c1nc2ccccc2s1")
"inactive"
>>> group_label("O=[N+]([O-])c1ccc(O)c2ncccc12")
"inactive"
>>> group_label("COc1ccc(C(=O)C2=CC(=O)C(=O)C2)cc1OC")
"inactive"
>>> group_label("COc1ccc(/C=C2\\Oc3cc(C)c(Cl)cc3C2=O)cc1OC")
"inactive"
>>> group_label("O=C1c2cc(S(=O)(=O)O)ccc2C(=O)c2c1cccc2[N+](=O)[O-]")
"inactive"
>>> group_label("Clc1ccc2c(c1)C[C@H]1C[C@@H](c3cccs3)N2O1")
"inactive"
>>> group_label("COc1ccc2nc(-n3nc(C)cc3C)c(-n3nc(C)cc3C)nc2c1")
"inactive"
>>> group_label("NC(=O)c1cc(Cl)ccc1NC(=O)COc1ccccc1")
"inactive"
>>> group_label("COC(=O)C1C2CC3c4[nH]c5cc(OC)ccc5c4CCN3CC2CC(OC2CCCCO2)C1OC (configuration not stated)")
"inactive"
>>> group_label("Cn1c2ccccc2c2nn(Cc3ccccc3)c(=O)nc21")
"inactive"
>>> group_label("COc1ccc(-n2ncc3c4nc(OC)c(S(=O)(=O)c5ccccc5)cc4ccc32)cc1")
"inactive"
>>> group_label("CC1(C)N=C(N)N=C(N)N1c1cccc(OCCOc2cccc([N+](=O)[O-])c2)c1")
"inactive"
>>> group_label("COc1ccc(Cn2c(Br)c3c(c2-c2cc(OC)c(OC)c(OC)c2)CCc2sc(N)nc2-3)cc1")
"inactive"
>>> group_label("O=C1c2[nH]cc(CN[C@@H]3CCCN3)c2C(=O)c2c1c(O)c1ccccc1c2O")
"active"
>>> group_label("COc1cc(OCc2cccc(-c3ccc(C(O)c4nccs4)cc3)c2C)cc(OC)c1C=O (configuration not stated)")
"inactive"
>>> group_label("Clc1nc(-c2ccccn2)nc2sc3c(c12)CCCCCC3")
"inactive"
>>> group_label("COc1cc(/C=C/c2cc(/C=C/c3ccc(O)c(OC)c3)n(-c3ccccc3)n2)ccc1O")
"active"
>>> group_label("COC(=O)CCC(=O)c1ccccc1")
"inactive"
>>> group_label("CN1CCN(c2nc(-c3ccncc3)nc3sc4c(c23)CCCCCC4)CC1")
"inactive"
>>> group_label("CCCCCCCC/C=C\\CCCCCCCCOc1cccc(CC(=O)NCC[N+](C)(C)C)c1")
"inactive"
>>> group_label("O=C1c2ccccc2C(=O)c2c(Nc3ccc(CCO)cc3)ccc(O)c21")
"inactive"
>>> group_label("COc1ccc(/C=N/OCC(O)CN2CCC(O)CC2)cc1OC1CCCC1 (configuration not stated)")
"inactive"
>>> group_label("COc1cc(C(=O)N(C(C)C)C2CCCCC2)cc(OC)c1OC")
"inactive"
>>> group_label("CN1CCc2c(c3ccccc3c3ccccc23)C1")
"inactive"
>>> group_label("O=C(NCc1cccnc1)c1ccc([N+](=O)[O-])o1")
"active"
>>> group_label("O=C1c2c(c3c4cc(Br)ccc4[nH]c3c3ccc4ccccc4c23)C(=O)N1O")
"inactive"
>>> group_label("CCOC(=O)C1=C(C)N2C(=NC3=C(CCCC/C3=C\\c3cc(OC)c(OC)c(OC)c3)C2c2cc(OC)c(OC)c(OC)c2)S1 (configuration not stated)")
"inactive"
>>> group_label("CCN1C(=O)C2(Nc3ccccc3S2)c2cc(C)ccc21 (configuration not stated)")
"inactive"
